# test target: DOR (Homo sapiens, UniProt P41143)
# Construct: host or cells: CHO (CHO-hDOR)
# Sequence (P41143 whole entry): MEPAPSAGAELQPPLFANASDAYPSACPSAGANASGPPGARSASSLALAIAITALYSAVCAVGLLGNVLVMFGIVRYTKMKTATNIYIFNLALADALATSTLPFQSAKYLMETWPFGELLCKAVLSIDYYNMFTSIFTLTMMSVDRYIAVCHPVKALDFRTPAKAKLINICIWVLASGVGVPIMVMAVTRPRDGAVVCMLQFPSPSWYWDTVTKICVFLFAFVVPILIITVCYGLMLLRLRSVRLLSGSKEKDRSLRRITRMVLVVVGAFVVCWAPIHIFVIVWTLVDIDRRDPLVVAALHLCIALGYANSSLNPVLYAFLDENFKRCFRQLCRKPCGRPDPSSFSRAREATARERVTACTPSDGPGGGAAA
# run description: [35S]GTPγS binding assay, CHO-hDOR membranes
# Type: biochemical
# experimental context: [35S]GTPγS, CHO human DOR membranes
With a cut-off of 10 nM, any EC50 strictly below it is called YES; any EC50 meeting it or above is called NO.

// query # strict comparison: is reported EC50 < 10 nM? input = `CO[C@@]12CC[C@@H](N[C@@H](CCCCN)C(=O)O)[C@@H]3Oc4c(O)ccc5c4[C@@]31CCN(C)[C@@H]2C5`
// result NO

// query Next compound up: `CO[C@@]12CC[C@@H](N[C@H](C(=O)O)C(C)C)[C@@H]3Oc4c(O)ccc5c4[C@@]31CCN(C)[C@@H]2C5`
// result YES

// query Next compound up: CO[C@@]12CC[C@@H](N[C@@H](CC(=O)O)C(=O)O)[C@@H]3Oc4c(O)ccc5c4[C@@]31CCN(C)[C@@H]2C5 [Compound 13b]
// result NO

// query Next compound up: `CO[C@@]12CC[C@H](N[C@@H](C)C(=O)O)[C@@H]3Oc4c(O)ccc5c4[C@@]31CCN(C)[C@@H]2C5`
// result YES
